Entry source: paper PMC11574364

test system: hnRNP-F (Homo sapiens)
Sequence: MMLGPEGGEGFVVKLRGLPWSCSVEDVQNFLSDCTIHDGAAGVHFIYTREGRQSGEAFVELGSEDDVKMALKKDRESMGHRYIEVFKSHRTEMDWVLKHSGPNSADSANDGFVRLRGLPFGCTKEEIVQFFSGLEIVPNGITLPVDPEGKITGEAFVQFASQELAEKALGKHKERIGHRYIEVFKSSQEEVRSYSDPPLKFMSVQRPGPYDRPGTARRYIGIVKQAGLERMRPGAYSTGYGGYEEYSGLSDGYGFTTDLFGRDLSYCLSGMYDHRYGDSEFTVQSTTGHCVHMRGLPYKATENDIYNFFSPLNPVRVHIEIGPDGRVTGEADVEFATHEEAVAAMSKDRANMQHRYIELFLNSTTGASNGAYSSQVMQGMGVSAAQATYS
assay notes: protein domain microarray probed with biotinylated miRNA; Domain array: 20 mM Tris-HCl pH 7.4, 200 mM KCl, 0.2 mM EDTA, 0.05% NP40, 2 ug/ul heparin, overnight 4 C. ORF array: PBS pH 7.0 with RNase inhibitor, 100 ng RNA; high values mean tight binding
test settings: ssRNA
Overview of reported binding signal across a group of sequences:
assay metric: binding signal (fluorescence intensity)

{"columns": ["sequence chain", "result"],
 "data": [
  ["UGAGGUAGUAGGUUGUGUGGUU", 1210],
  ["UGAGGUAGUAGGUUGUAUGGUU", 953],
  ["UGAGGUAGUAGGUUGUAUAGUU", 624],
  ["AGAGGUAGUAGGUUGCAUAGUU", 2390]
]}

---

Overview of reported binding signal across a group of sequences:
test system: hnRNP-I(3-4) (Homo sapiens, UniProt P26599)
Sequence (P26599 346-557): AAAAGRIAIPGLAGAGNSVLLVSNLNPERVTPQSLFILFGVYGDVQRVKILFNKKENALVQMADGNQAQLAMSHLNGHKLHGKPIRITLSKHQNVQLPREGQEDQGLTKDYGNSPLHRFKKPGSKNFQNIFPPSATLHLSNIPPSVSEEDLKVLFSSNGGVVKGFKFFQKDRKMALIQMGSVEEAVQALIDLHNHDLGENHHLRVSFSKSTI
assay notes: protein domain microarray probed with biotinylated miRNA; Domain array: 20 mM Tris-HCl pH 7.4, 200 mM KCl, 0.2 mM EDTA, 0.05% NP40, 2 ug/ul heparin, overnight 4 C. ORF array: PBS pH 7.0 with RNase inhibitor, 100 ng RNA; high values mean tight binding
test settings: ssRNA

{"columns": ["sequence chain", "test system", "binding signal [fluorescence intensity]"],
 "data": [
  ["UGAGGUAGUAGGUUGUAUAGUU", "hnRNP-I(3-4) (Homo sapiens, UniProt P26599)", 323],
  ["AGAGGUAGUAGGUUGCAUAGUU", "hnRNP-I(3-4) (Homo sapiens, UniProt P26599)", 787],
  ["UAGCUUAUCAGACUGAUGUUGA", "hnRNP-I(3-4) (Homo sapiens, UniProt P26599)", 230],
  ["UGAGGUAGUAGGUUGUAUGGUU", "hnRNP-I(3-4) (Homo sapiens, UniProt P26599)", 934]
]}

---

Overview of reported binding signal across a group of sequences:
test system: SSB (Homo sapiens, UniProt P05455)
Sequence: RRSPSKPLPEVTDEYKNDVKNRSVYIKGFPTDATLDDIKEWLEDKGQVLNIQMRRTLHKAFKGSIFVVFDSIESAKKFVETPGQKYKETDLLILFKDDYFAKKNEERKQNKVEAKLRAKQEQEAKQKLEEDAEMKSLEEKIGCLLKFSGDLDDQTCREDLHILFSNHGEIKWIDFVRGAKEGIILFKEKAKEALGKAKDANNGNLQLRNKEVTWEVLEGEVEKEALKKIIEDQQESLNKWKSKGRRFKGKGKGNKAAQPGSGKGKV
assay notes: protein domain microarray probed with biotinylated miRNA; Domain array: 20 mM Tris-HCl pH 7.4, 200 mM KCl, 0.2 mM EDTA, 0.05% NP40, 2 ug/ul heparin, overnight 4 C. ORF array: PBS pH 7.0 with RNase inhibitor, 100 ng RNA; high values mean tight binding
test settings: ssRNA
assay metric: binding signal (fluorescence intensity)

{"columns": ["sequence chain", "assay metric", "readout units", "result"],
 "data": [
  ["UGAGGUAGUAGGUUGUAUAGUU", "binding signal", "fluorescence intensity", 76.1],
  ["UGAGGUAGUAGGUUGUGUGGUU", "binding signal", "fluorescence intensity", 686],
  ["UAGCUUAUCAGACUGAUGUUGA", "binding signal", "fluorescence intensity", 22.6],
  ["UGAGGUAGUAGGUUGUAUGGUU", "binding signal", "fluorescence intensity", 770]
]}

---

test system: IGF2BP2 (Homo sapiens, UniProt Q9Y6M1)
Sequence (Q9Y6M1 1-177): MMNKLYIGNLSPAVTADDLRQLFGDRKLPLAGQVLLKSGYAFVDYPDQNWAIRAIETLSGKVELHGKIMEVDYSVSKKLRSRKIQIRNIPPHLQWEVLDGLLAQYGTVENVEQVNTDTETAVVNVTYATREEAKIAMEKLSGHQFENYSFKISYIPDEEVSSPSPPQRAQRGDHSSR
assay notes: protein domain microarray probed with biotinylated miRNA; Domain array: 20 mM Tris-HCl pH 7.4, 200 mM KCl, 0.2 mM EDTA, 0.05% NP40, 2 ug/ul heparin, overnight 4 C. ORF array: PBS pH 7.0 with RNase inhibitor, 100 ng RNA; high values mean tight binding
test settings: ssRNA

{"columns": ["sequence chain", "readout units", "binding signal"],
 "data": [
  ["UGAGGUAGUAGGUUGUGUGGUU", "fluorescence intensity", 60.9],
  ["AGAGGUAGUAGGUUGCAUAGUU", "fluorescence intensity", 130],
  ["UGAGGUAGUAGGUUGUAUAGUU", "fluorescence intensity", 28.3],
  ["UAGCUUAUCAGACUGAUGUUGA", "fluorescence intensity", 21.5],
  ["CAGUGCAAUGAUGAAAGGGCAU", "fluorescence intensity", 91.7],
  ["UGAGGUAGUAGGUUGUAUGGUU", "fluorescence intensity", 49.2]
]}

---

test system: SETD1A (Homo sapiens)
Sequence (O15047 60-200): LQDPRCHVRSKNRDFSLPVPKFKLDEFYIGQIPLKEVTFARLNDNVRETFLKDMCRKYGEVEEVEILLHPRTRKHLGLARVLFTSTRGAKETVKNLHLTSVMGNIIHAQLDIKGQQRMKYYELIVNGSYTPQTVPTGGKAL
assay notes: protein domain microarray probed with biotinylated miRNA; Domain array: 20 mM Tris-HCl pH 7.4, 200 mM KCl, 0.2 mM EDTA, 0.05% NP40, 2 ug/ul heparin, overnight 4 C. ORF array: PBS pH 7.0 with RNase inhibitor, 100 ng RNA; high values mean tight binding
test settings: ssRNA
Overview of reported binding signal across a group of sequences:
assay metric: binding signal (fluorescence intensity)

{"columns": ["sequence chain", "test system", "assay metric", "readout units", "result"],
 "data": [
  ["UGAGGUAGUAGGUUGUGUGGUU", "SETD1A (Homo sapiens)", "binding signal", "fluorescence intensity", 213],
  ["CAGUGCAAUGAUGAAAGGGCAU", "SETD1A (Homo sapiens)", "binding signal", "fluorescence intensity", 64.7],
  ["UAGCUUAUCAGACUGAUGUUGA", "SETD1A (Homo sapiens)", "binding signal", "fluorescence intensity", 23.2],
  ["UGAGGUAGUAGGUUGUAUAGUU", "SETD1A (Homo sapiens)", "binding signal", "fluorescence intensity", 36]
]}

---

test system: SFRS3 (Homo sapiens)
Sequence: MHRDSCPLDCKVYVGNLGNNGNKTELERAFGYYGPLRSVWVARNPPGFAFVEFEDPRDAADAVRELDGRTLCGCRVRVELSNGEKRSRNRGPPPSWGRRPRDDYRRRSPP
assay notes: protein domain microarray probed with biotinylated miRNA; Domain array: 20 mM Tris-HCl pH 7.4, 200 mM KCl, 0.2 mM EDTA, 0.05% NP40, 2 ug/ul heparin, overnight 4 C. ORF array: PBS pH 7.0 with RNase inhibitor, 100 ng RNA; high values mean tight binding
test settings: ssRNA
Overview of reported binding signal across a group of sequences:

{"columns": ["sequence chain", "binding signal / fluorescence intensity"],
 "data": [
  ["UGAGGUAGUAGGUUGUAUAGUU", 37.7],
  ["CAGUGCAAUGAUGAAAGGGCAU", 219],
  ["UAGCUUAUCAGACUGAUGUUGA", 34.7],
  ["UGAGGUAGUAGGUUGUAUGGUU", 235],
  ["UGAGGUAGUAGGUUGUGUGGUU", 276],
  ["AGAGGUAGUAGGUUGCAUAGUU", 324]
]}

---

test system: MYEF2(1-2) (Homo sapiens)
Sequence: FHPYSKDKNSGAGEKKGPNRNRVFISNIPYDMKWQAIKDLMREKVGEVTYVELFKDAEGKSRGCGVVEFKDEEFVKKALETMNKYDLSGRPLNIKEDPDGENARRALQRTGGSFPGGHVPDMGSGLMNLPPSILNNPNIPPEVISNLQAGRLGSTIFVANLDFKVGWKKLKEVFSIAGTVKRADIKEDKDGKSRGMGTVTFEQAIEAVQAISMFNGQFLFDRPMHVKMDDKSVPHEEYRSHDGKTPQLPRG
assay notes: protein domain microarray probed with biotinylated miRNA; Domain array: 20 mM Tris-HCl pH 7.4, 200 mM KCl, 0.2 mM EDTA, 0.05% NP40, 2 ug/ul heparin, overnight 4 C. ORF array: PBS pH 7.0 with RNase inhibitor, 100 ng RNA; high values mean tight binding
test settings: ssRNA
assay metric: binding signal

{"columns": ["sequence chain", "result"],
 "data": [
  ["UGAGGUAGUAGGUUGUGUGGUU", "1050 fluorescence intensity"],
  ["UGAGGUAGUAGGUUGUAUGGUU", "789 fluorescence intensity"],
  ["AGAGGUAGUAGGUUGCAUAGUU", "1130 fluorescence intensity"],
  ["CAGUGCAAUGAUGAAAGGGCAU", "826 fluorescence intensity"]
]}
